I'd appreciate it if you could supply IC50 values for the items below.
molecular target: Glutamate NMDA receptor; Grin1/Grin2a (Rattus norvegicus, UniProt P35439+Q00959); assay: Antagonist activity at rat recombinant NR1-NR2A receptor expressed in Xenopus oocytes at holding potential of -40mV by two-electrode voltage-clamp electrophysiology; assay type: functional, cell-based, Oocyte; details: read-out: IC50
Sequence (Q00959 whole entry, other chains not shown): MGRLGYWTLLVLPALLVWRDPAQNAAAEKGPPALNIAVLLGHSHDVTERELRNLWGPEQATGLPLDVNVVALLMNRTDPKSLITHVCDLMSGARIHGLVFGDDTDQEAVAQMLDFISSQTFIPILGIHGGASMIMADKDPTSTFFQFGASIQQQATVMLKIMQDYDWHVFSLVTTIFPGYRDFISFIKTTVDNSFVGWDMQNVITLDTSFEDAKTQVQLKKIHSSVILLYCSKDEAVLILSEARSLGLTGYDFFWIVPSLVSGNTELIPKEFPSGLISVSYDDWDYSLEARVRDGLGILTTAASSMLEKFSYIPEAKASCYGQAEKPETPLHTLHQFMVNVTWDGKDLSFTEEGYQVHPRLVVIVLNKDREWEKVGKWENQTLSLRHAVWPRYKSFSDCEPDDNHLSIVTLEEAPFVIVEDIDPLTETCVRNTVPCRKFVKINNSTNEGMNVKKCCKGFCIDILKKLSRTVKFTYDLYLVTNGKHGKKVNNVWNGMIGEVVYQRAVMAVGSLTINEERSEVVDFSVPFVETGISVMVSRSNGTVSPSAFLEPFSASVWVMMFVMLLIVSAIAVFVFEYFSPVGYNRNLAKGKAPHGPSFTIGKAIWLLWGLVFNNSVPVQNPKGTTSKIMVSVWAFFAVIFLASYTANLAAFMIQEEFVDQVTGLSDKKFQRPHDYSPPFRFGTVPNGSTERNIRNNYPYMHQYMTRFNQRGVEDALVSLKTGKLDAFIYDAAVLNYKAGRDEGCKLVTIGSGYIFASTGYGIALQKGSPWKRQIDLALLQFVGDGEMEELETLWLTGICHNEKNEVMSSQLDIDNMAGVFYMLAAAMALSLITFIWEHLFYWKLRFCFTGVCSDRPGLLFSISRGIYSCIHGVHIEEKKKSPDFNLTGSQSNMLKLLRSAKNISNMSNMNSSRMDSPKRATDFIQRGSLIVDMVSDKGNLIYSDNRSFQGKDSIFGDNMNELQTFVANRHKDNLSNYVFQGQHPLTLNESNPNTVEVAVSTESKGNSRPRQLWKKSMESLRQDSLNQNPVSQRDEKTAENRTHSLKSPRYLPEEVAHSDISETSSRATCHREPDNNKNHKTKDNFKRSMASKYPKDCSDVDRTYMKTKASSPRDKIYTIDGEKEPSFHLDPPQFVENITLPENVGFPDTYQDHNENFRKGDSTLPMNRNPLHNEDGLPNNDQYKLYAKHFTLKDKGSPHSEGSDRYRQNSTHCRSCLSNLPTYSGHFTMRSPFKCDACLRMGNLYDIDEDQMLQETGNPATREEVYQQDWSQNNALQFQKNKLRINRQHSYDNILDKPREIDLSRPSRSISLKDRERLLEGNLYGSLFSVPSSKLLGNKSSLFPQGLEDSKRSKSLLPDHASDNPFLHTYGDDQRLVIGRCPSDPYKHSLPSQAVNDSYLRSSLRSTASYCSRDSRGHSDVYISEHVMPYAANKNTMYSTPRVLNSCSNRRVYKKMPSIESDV

Problem: Hello, I am looking for reported IC50 with Glutamate NMDA receptor; Grin1/Grin2a (Rattus norvegicus, UniProt P35439+Q00959) for `Cc1ccc(-n2c(/C=C/c3cccnc3)nc3ccc(I)cc3c2=O)cc1` . Could you help?
Solution: > 300 µM

Problem: Param item: `Cc1ccc2nc(CCc3ccccc3)n(-c3ccc(C(=O)O)cc3)c(=O)c2c1`
Solution: > 300 µM

Problem: Param item: `COc1ccc2nc(/C=C/c3cccc(C(=O)O)c3)n(-c3ccc(C(=O)O)cc3)c(=O)c2c1`
Solution: > 300 µM

Problem: Param item: `COc1cccc(-n2c(/C=C/c3cccnc3)nc3ccc(I)cc3c2=O)c1`
Solution: > 300 µM

Problem: Param item: `COc1ccc(-n2c(/C=C/c3ccc([N+](=O)[O-])cc3)nc3ccccc3c2=O)cc1`
Solution: > 300 µM

Problem: Param item: `COc1cccc(-n2c(/C=C/c3ccccc3[N+](=O)[O-])nc3ccccc3c2=O)c1`
Solution: > 300 µM

Problem: Param item: `O=C(O)c1ccc(-n2c(/C=C/c3cccc([N+](=O)[O-])c3)nc3ccc(O)cc3c2=O)cc1`
Solution: 237 µM

Problem: Param item: `O=C(O)c1ccc(-n2c(/C=C/c3cccc(C(F)(F)F)c3)nc3ccccc3c2=O)cc1`
Solution: 13 µM

Problem: Param item: `O=c1c2cc(I)ccc2nc(/C=C/c2cccnc2)n1-c1cccc([N+](=O)[O-])c1`
Solution: > 300 µM

Problem: Param item: `COc1ccc(/C=C/c2nc3ccccc3c(=O)n2-c2ccc(C(=O)O)cc2)cc1`
Solution: 100 µM

Problem: Param item: `O=C(O)c1ccc(-n2c(/C=C/c3ccc(N4CCOCC4)cc3)nc3ccccc3c2=O)cc1`
Solution: > 300 µM

Problem: Param item: `COc1cccc(-n2c(/C=C/c3ccc([N+](=O)[O-])cc3)nc3ccccc3c2=O)c1`
Solution: > 300 µM

Problem: Param item: `O=C(O)COc1ccc(/C=C/c2nc3ccccc3c(=O)n2-c2ccc(C(=O)O)cc2)cc1`
Solution: > 300 µM

Problem: Param item: `COc1cccc(-n2c(/C=C/c3cccc([N+](=O)[O-])c3)nc3ccccc3c2=O)c1`
Solution: > 300 µM

Problem: Param item: `O=C(O)c1cccc(-n2c(/C=C/c3ccc([N+](=O)[O-])cc3)nc3ccccc3c2=O)c1`
Solution: 135 µM

Problem: Param item: `O=C(O)c1ccccc1-n1c(/C=C/c2cccc([N+](=O)[O-])c2)nc2ccccc2c1=O`
Solution: > 300 µM

Problem: Param item: `CN(C)c1ccc(/C=C/c2nc3ccccc3c(=O)n2-c2ccc(C(=O)O)cc2)cc1`
Solution: > 300 µM

Problem: Param item: `O=C(O)c1ccc(-n2c(/C=C/c3ccccc3O)nc3ccccc3c2=O)cc1`
Solution: 20 µM

Problem: Param item: `Cc1ccc2nc(/C=C/c3cccc([N+](=O)[O-])c3)n(-c3ccc(C(=O)O)cc3)c(=O)c2c1`
Solution: 12 µM

Problem: Param item: `COc1cccc(/C=C/c2nc3ccccc3c(=O)n2-c2ccc(C(=O)O)cc2)c1`
Solution: 24 µM

Problem: Param item: `COc1cccc(/C=C/c2nc3ccc(OC)cc3c(=O)n2-c2ccc(C(=O)O)cc2)c1`
Solution: 73 µM
